Target entity: T1, human PTH1R on Saos-2 cells (endogenous) (human, UniProt Q03431 27-593)
T1 sequence (looked up): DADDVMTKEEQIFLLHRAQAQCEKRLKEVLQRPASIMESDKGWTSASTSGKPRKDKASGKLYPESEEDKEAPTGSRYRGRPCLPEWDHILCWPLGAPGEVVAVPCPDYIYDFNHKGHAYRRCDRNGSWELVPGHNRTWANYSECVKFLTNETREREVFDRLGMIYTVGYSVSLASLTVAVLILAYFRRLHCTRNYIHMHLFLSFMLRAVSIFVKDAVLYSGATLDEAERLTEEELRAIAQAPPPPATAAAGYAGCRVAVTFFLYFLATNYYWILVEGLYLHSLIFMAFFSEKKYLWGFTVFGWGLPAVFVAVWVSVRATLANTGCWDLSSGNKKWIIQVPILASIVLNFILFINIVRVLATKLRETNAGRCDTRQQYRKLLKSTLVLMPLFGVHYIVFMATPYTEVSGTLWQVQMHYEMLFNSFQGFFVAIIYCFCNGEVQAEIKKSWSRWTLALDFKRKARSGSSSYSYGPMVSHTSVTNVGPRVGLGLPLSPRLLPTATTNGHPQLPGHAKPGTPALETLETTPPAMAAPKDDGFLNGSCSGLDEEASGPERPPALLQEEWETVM
Assay explanation: cell-based or functional assay
Quantity kind: % inhibition of cAMP accumulation at 1 µM PTH(1-34), 267 nM IgG (%)
Answer with a number only, understood to be in %.

Some solved entries appear below for comparison.
* XPA.85.330 (antibody, V domains shown, IgG; also called Ab330) VH: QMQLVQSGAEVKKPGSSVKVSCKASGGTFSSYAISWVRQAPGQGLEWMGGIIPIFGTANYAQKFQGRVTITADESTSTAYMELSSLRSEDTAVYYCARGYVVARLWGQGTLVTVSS VL: DIVMTQTPLSLSVTPGQPASISCKSSQSLLHIDGNTYLYWYLQRPGQPPQLLIYEISNRFSGVPDRFSGSGSGTDFTLKISRVEAEDVGVYYCMQSLHFPITFGQGTRLEIK | 85
* XPA.85.288 (antibody, V domains shown, also called Ab288) VH: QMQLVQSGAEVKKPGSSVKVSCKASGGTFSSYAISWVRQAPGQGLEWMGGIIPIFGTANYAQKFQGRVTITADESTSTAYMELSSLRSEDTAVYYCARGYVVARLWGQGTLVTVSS VL: DVVMTQTPLSLSVTPGQPASISCKSSQSLLHIDGKTYLYWYLQKSGQSPQLLIYEVSNRFSGVPDTFSGSGSGTDFTLKISRVEAEDVGVYYCMQSLHFPITFGQGTRLEIK | 79

## Input GET /values?readout=% inhibition of cAMP accumulation at 1 µM PTH(1-34), 267 nM IgG&item= XPA.85.329 (antibody, V domains shown, IgG; also called Ab329; XPA.329) VH: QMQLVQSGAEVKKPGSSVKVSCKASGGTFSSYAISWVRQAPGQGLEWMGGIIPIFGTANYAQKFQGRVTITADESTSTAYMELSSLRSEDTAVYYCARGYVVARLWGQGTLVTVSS VL: DIVMTQTPLSLSVTPGQPASISCKSSQSLLHIDGLTYLYWYLQKPGQPPQLLIYEVSHRFSGVSDKFSGSGSGTDFTLTISRVEAEDVGVYYCMQSLHLPITFGQGTRLEIK
## Output 79
